# measurement-target: human kappa opioid receptors (Homo sapiens)
# Construct: expressed in transfected cells; host or cells: U2OS
# Sequence (P41145 whole entry): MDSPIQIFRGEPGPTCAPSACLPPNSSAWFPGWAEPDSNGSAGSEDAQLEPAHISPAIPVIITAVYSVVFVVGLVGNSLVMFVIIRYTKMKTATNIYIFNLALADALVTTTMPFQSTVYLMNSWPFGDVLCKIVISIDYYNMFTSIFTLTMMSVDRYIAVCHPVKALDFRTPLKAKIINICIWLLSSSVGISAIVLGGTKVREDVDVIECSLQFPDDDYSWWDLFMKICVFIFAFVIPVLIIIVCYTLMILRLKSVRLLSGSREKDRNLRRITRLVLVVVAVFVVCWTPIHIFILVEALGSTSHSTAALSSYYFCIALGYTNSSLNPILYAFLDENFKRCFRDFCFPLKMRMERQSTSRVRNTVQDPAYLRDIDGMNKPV
# assay-summary: [35S]GTPγS binding, membranes from U2OS cells
# Type: biochemical
# condition-label: GTPγS EC50 (nM), Table D
Entries and their EC50 values follow.
Write the number in nM without appending the unit.

Sample records with EC50:
{"columns": ["compound", "EC50 / nM"],
 "data": [
  ["CS(=O)(=O)CCN1CCN(C(=O)Cc2ccc(Cl)c(Cl)c2)[C@H]2[C@H]1COC[C@@H]2N1CCCC1 (racemic) [rac-5A94]", 27],
  ["CC(C)(O)CN1CCN(C(=O)Cc2ccc(Cl)c(Cl)c2)[C@H]2[C@H](N3CCCC3)COC[C@@H]21 (single isomer, unassigned) [Example 5A90B]", 5.4],
  ["CC(F)(F)CN1CCN(C(=O)Cc2ccc(Cl)c(Cl)c2)[C@H]2[C@H](N3CCCC3)COC[C@@H]21 [Example 5A127B]", 24],
  ["O=C(Cc1ccc(Cl)c(Cl)c1)N1CCN(C(=O)c2cc[nH]n2)[C@@H]2COC[C@H](N3CCCC3)[C@H]21 (racemic) [rac-5A122]", 31],
  ["O=C(Cc1ccc(Cl)c(Cl)c1)N1CCN(C(=O)c2cn[nH]c2)[C@@H]2COC[C@H](N3CCCC3)[C@H]21 (racemic) [rac-5A123]", 39]
]}

Alright, here's another compound for you.
Lookup: Test system human kappa opioid receptors (Homo sapiens); read-out EC50; what value for COCCN1CCN(C(=O)Cc2ccc(Cl)c(Cl)c2)[C@H]2[C@H]1COC[C@@H]2N1CCCC1 (single isomer, unassigned) [Example 5A141A] ?
Found: 37
